molecular target: human recombinant mGluR5 (Homo sapiens, UniProt P41594); experiment: positive modulation of mGluR5, calcium based FLIPR assay; settings: EC50 of the modulation; HEK 293 cell line expressing human recombinant mGluR5; glutamate at approximately 5% basal stimulation; peak height of Ca fluorescence signal
Sequence (P41594 21-1212): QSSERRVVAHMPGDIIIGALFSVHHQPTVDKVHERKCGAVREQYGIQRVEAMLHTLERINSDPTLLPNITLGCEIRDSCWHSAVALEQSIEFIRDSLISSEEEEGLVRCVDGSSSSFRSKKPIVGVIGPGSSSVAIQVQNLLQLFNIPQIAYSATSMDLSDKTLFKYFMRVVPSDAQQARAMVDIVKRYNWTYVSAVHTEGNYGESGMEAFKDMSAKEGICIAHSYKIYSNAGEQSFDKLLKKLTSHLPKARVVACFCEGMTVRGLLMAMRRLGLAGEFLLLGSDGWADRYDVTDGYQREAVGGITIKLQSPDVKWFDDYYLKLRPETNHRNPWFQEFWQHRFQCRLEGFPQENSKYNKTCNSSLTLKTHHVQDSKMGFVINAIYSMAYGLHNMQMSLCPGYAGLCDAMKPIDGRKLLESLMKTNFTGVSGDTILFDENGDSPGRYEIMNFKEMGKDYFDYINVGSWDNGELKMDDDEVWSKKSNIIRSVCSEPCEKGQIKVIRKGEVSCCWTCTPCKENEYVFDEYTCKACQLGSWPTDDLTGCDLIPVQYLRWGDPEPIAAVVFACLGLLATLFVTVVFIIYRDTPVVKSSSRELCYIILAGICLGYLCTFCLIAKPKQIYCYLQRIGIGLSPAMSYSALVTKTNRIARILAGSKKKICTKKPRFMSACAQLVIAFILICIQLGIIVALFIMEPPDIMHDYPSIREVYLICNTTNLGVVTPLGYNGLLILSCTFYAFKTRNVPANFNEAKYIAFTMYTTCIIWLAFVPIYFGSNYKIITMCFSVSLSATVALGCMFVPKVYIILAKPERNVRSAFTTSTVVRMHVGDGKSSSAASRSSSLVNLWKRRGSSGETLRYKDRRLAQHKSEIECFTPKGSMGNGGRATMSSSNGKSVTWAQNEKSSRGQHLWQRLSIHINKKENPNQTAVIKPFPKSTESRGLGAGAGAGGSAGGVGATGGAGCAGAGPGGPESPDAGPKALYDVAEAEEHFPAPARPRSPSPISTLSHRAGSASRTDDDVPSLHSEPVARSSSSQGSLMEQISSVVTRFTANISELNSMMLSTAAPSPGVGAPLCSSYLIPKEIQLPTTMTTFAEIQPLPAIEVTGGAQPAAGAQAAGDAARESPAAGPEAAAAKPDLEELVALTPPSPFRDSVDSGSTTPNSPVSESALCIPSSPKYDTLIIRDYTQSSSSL
property-name: EC50 (nM)

compound: COc1cccc(-c2cn(-c3ccc(F)cc3)c(CC(=O)N3CCc4nc(C)sc4CC3)n2)c1 [Example 7.02.22.]
unit-tag: nM
EC50: 138
//
compound: COc1ccc(-c2cn(-c3ccccc3)c(CC(=O)N3CCc4nc(N)sc4CC3)n2)cc1 [Example 7.02.23.]
unit-tag: nM
EC50: 394
//
compound: Cc1nc2c(s1)CCN(C(=O)Cc1nc(-c3ccc(F)c(C)c3)cn1-c1ccc(F)cc1)CC2 [Example 7.02.18.]
unit-tag: nM
EC50: 67
//
compound: Cc1nc2c(s1)CCN(C(=O)Cc1nc(-c3ccc(F)cc3)cn1-c1ccc(F)cc1)CC2 [Example 7.02.01.]
unit-tag: nM
EC50: 94

(I) Cc1nc2c(s1)CN(C(=O)Cc1nc(-c3ccc(F)cc3)cn1-c1ccc(F)cc1)C2 [Example 7.02.03.]
(II) COc1ccc(-c2cn(-c3ccc(F)cc3)c(CC(=O)N3CCN(c4cccc(OC)c4)C(=O)C3)n2)cc1 [Example 7.02.13.]
(III) Nc1nc2c(s1)CCN(C(=O)Cc1nc(-c3ccc(F)cc3)cn1-c1ccc(F)cc1)CC2 [Example 7.01.02.]
(IV) Cc1ccc(-c2cn(-c3ccc(F)cc3)c(CC(=O)N3CCc4nc(C)oc4C3)n2)cc1 [Example 7.02.04.]
(V) Cc1ccc(-c2cn(-c3ccc(F)cc3)c(CC(=O)N3CCN(c4cccc(C#N)c4)C(=O)C3)n2)cc1 [Example 7.02.08.]
# sort list by recorded EC50, greatest to least Put the labels in the requested order and list them out.
IV, I, III, II, V
(IV: 375 nM, I: 210 nM, III: 109 nM, II: 74 nM, V: 32 nM)

====

molecular target: human recombinant mGluR5 (Homo sapiens, UniProt P41594); assay: positive modulation of mGluR5, calcium based FLIPR assay; details: EC50 of the modulation; HEK 293 cell line expressing human recombinant mGluR5; glutamate at approximately 5% basal stimulation; peak height of Ca fluorescence signal
pEC50: −log10 of the molar value.
property-name: pEC50

The following molecules have reported results that may help.
smiles-code: COc1cccc(N2CCN(C(=O)Cc3nc(-c4ccc(C)cc4)cn3-c3ccc(F)cc3)CC2=O)c1
property-name: pEC50
measured-value: 7.02
--
smiles-code: Cc1cc(-c2cn(-c3ccc(F)cc3)c(CC(=O)N3CCc4nc(N)sc4CC3)n2)ccc1Cl
property-name: pEC50
measured-value: 7.15
--
smiles-code: Cc1ccc(-c2cn(-c3ccc(F)cc3)c(CC(=O)N3CCc4nc(N)sc4CC3)n2)cc1
property-name: pEC50
measured-value: 7.28
--
smiles-code: COc1ccc(-c2cn(-c3ccc(F)cc3)c(CC(=O)N3CCc4nc(N)sc4CC3)n2)cc1
property-name: pEC50
measured-value: 6.99
--
smiles-code: Cc1nc2c(o1)CN(C(=O)Cc1nc(-c3ccc(F)cc3)cn1-c1ccc(F)cc1)CC2
property-name: pEC50
measured-value: 6.11

(I) Cc1nc2c(o1)CN(C(=O)Cc1nc(-c3ccc(F)c(C)c3)cn1-c1ccc(F)cc1)CC2
(II) COc1ccc(-c2cn(-c3ccc(F)cc3)c(CC(=O)N3CCc4nc(C)sc4CC3)n2)cc1
For the two items I and II , which reports the higher pEC50 value? Kindly give the label for the entry you pick.
II
(II: 7.41, I: 7.17)

(P) Cc1ccc(-c2cn(-c3ccc(F)cc3)c(CC(=O)N3Cc4nc(C)sc4C3)n2)cc1
(Q) Cc1nc2c(s1)CCN(C(=O)Cc1nc(-c3ccc(F)c(C)c3)cn1-c1ccccc1)CC2
For the two items P and Q , which reports the higher pEC50 value? Kindly give the label for the entry you pick.
Q

(A) COc1cccc(N2CCN(C(=O)Cc3nc(-c4ccc(F)c(C)c4)cn3-c3ccccc3)CC2=O)c1
(B) Cc1nc2c(s1)CCN(C(=O)Cc1nc(-c3ccc(Cl)c(C)c3)cn1-c1ccc(F)cc1)CC2
(C) COc1ccc(-c2cn(-c3ccccc3)c(CC(=O)N3CCc4nc(C)oc4C3)n2)cc1
# sort list by recorded pEC50, greatest to least Put the labels in the requested order and list them out.
B, A, C
(B: 7.35, A: 7.03, C: 5.84)

(A) Cc1cc(-c2cn(-c3ccc(F)cc3)c(CC(=O)N3CCc4nc(N)sc4CC3)n2)ccc1F
(B) COc1ccc(-c2cn(-c3ccccc3)c(CC(=O)N3CCc4nc(C)sc4CC3)n2)cc1
For the two items A and B , which reports the higher pEC50 value? Kindly give the label for the entry you pick.
A
(A: 7.15, B: 6.90)
